Target Or System: Human immunodeficiency virus type 1 protease (Human immunodeficiency virus 1, UniProt Q72874)
Readout Type: Ki

What does the data say about its Ki? Entry: CC[C@H](C)[C@H](NC(=O)[C@H](C(C)C)[C@@H](O)[C@H](O)[C@H](CC1CCCCC1)NC(=O)[C@H](Cc1c[nH]cn1)NC(=O)COc1cccc2ccccc12)C(=O)NCc1ccccn1
< 1 nM

---

Tested on: Human immunodeficiency virus 1
Measurement Notes: Tested for the inhibition of p24 production in HIV-1 IIIB infected human peripheral blood mononuclear cells (PBMC)
Assay type: functional, organism-based
Readout Type: pIC50
On this scale, pIC50 is minus log10 of a concentration expressed in M (mol/L).

What does the data say about its pIC50? Entry: CC[C@H](C)[C@H](NC(=O)[C@H](C(C)C)[C@@H](O)[C@H](O)[C@H](CC1CCCCC1)NC(=O)[C@H](Cc1c[nH]cn1)NC(=O)COc1cccc2ccccc12)C(=O)NCc1ccccn1
7.30
